Source of measurements: ChEMBL document CHEMBL4004839

# reported IC50; entries follow
# system_tested: UDP-N-acetylbacillosamine N-acetyltransferase (Campylobacter jejuni subsp. jejuni serotype O:2 (strain ATCC 700819 /NCTC 11168))
# experiment_notes: Inhibition of Campylobacter jejuni NCTC 11168 PglD acetyltransferase expressed in Escherichia coli BL-21(DE3) strain (Stratagene) assessed as release of CoASH preincubated for 30 mins followed by addition of 300 uM AcCoA and 500 uM UDP-4-aminosugar as substrate by Ellman's method
Form field: result (number plus unit)

Sample records with IC50:
CNc1nc(CCc2ccccc2)nc2sc(C(=O)O)c(C)c12; 2200 nM
Cc1cccc(CCNc2nc(CCc3ccccc3)nc3sc(C(=O)O)c(C)c23)c1; 420 nM
Cc1c(C(=O)O)sc2nc(CCc3ccccc3)nc(NCCc3ccccc3)c12; 1400 nM

Quick check: IC50 of `CNc1nc(CCc2cccc(F)c2)nc2sc(C(=O)O)c(C)c12` ? 2300 nM

Returns the measured IC50 for the input compound. Input: `CO[C@H](CNc1nc(CCc2ccc(NC(C)=O)cc2)nc2sc(C(=O)O)c(C)c12)c1ccccc1` 270 nM

So what does the record say about IC50 for `COc1ccccc1CCNc1nc(CCc2ccccc2)nc2sc(C(=O)O)c(C)c12` ? 480 nM

// IC50 lookup, key: `Cc1c(C(=O)O)sc2nc(CCc3ccccc3)nc(NCCc3ccccn3)c12` 420 nM

Look at this compound and give its reported IC50. `COc1cccc(CCNc2nc(CCc3ccccc3)nc3sc(C(=O)O)c(C)c23)c1` 450 nM

====

# system_tested: UDP-N-acetylbacillosamine N-acetyltransferase (Campylobacter jejuni subsp. jejuni serotype O:2 (strain ATCC 700819 /NCTC 11168)) (UniProt Q0P9D1)
# experiment_notes: Binding affinity to Campylobacter jejuni NCTC 11168 PglD acetyltransferase expressed in Escherichia coli BL-21(DE3) strain (Stratagene) assessed as change in melting temperature at 100 uM by Sypro orange dye-based differential scanning fluorimetry
recorded_endpoint: ΔTm (°C)
Record the value in °C, omitting the unit from your answer.

Completed entries (count: 4):
CNc1nc(CCc2cccc(C(F)(F)F)c2)nc2sc(C(=O)O)c(C)c12; 7.4
CO[C@@H](CNc1nc(C[C@H](C)c2ccccc2)nc2sc(C(=O)O)c(C)c12)c1ccccc1; 9.4
CNc1nc(CCc2ccc3c(c2)OCO3)nc2sc(C(=O)O)c(C)c12; 7.4
Cc1c(C(=O)O)sc2nc(CCc3ccccc3)nc(NCCc3ccccc3F)c12; 13.2

Record request: ΔTm value, item `CNc1nc(CCc2cccc(Cl)c2)nc2sc(C(=O)O)c(C)c12` 9.4

====

# system_tested: UDP-N-acetylbacillosamine N-acetyltransferase (Campylobacter jejuni subsp. jejuni serotype O:2 (strain ATCC 700819 /NCTC 11168)) (UniProt Q0P9D1)
# Sequence (whole entry): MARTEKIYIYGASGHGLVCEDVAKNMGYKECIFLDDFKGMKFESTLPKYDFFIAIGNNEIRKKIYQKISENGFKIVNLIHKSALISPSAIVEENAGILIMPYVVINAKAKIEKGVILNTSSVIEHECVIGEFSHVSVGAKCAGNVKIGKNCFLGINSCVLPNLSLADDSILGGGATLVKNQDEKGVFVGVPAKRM
# experiment_notes: Binding affinity to Campylobacter jejuni NCTC 11168 PglD acetyltransferase expressed in Escherichia coli BL-21(DE3) strain (Stratagene) assessed as change in melting temperature at 100 uM by Sypro orange dye-based differential scanning fluorimetry
recorded_endpoint: ΔTm

CNc1nc(CCc2cccc(F)c2)nc2sc(C(=O)O)c(C)c12; 8.9 °C
Cc1c(C(=O)O)sc2nc(CCc3ccccc3)nc(NCCN)c12; 3.6 °C

Can you look up the measured ΔTm of `CO[C@H](CNc1nc(C[C@@H](C)c2ccccc2)nc2sc(C(=O)O)c(C)c12)c1ccccc1` for me? 9.9 °C

Entry `CO[C@H](CNc1nc(CCc2ccc(NC(C)=O)cc2)nc2sc(C(=O)O)c(C)c12)c1ccccc1` has what ΔTm? 12.5 °C

Value lookup for ΔTm; key = `CNc1nc(CCc2cccc(OC)c2)nc2sc(C(=O)O)c(C)c12` 8.4 °C

I would be grateful if you could share the reported ΔTm for `Cc1c(C(=O)O)sc2nc(CCc3ccccc3)nc(NCCc3ccccc3)c12` . 13.2 °C

Dear colleague, I am looking for the recorded ΔTm of the following compound: `COc1ccccc1CCNc1nc(CCc2ccccc2)nc2sc(C(=O)O)c(C)c12` 13.7 °C

// lookup ΔTm for `Cc1ccccc1CCNc1nc(CCc2ccccc2)nc2sc(C(=O)O)c(C)c12` 14.3 °C

What ΔTm value was documented for this compound, `CC(=O)Nc1ccc(CCc2nc(NCCN)c3c(C)c(C(=O)O)sc3n2)cc1` ? 5.3 °C

Need ΔTm of `Cc1c(C(=O)O)sc2nc(CCc3ccccc3)nc(NCCc3ccc4c(c3)OCO4)c12` , thanks. 11.5 °C

====

# system_tested: UDP-N-acetylbacillosamine N-acetyltransferase (Campylobacter jejuni subsp. jejuni serotype O:2 (strain ATCC 700819 /NCTC 11168))
# Sequence (Q0P9D1 whole entry): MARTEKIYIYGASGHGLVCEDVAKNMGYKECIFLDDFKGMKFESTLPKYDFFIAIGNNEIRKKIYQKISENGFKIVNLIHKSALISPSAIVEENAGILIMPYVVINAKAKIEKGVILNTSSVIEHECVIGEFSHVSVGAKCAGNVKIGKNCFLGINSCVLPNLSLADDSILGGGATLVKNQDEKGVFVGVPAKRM
# experiment_notes: Competitive inhibition of Campylobacter jejuni NCTC 11168 PglD acetyltransferase expressed in Escherichia coli BL-21(DE3) strain (Stratagene) assessed as release of CoASH preincubated for 30 mins followed by addition of UDP-4-aminosugar and 2 fold excess AcCoA as substrate by Ellman's method
recorded_endpoint: IC50 (nM)
Give just the number in nM; leave the unit off.

Quick one: IC50 of `COc1cc(CCNc2nc(CCc3ccccc3)nc3sc(C(=O)O)c(C)c23)cc(OC)c1` ? 630

====

# system_tested: UDP-N-acetylbacillosamine N-acetyltransferase (Campylobacter jejuni subsp. jejuni serotype O:2 (strain ATCC 700819 /NCTC 11168))
# experiment_notes: Inhibition of Campylobacter jejuni NCTC 11168 PglD acetyltransferase expressed in Escherichia coli BL-21(DE3) strain (Stratagene) assessed as release of CoASH preincubated for 30 mins followed by addition of 300 uM AcCoA and 500 uM UDP-4-aminosugar as substrate by Ellman's method
Entries and their IC50
Entry rule: numbers only, all in nM.

Cc1ccc(CCNc2nc(CCc3ccccc3)nc3sc(C(=O)O)c(C)c23)cc1; 720
Cc1c(C(=O)O)sc2nc(CCc3ccccc3)nc(NCCc3ccc(F)cc3)c12; 420
COc1cc(CCNc2nc(CCc3ccccc3)nc3sc(C(=O)O)c(C)c23)cc(OC)c1; 370
CNc1nc(CCc2cccc(Cl)c2)nc2sc(C(=O)O)c(C)c12; 2100
CC(=O)Nc1ccc(CCc2nc(NCCN)c3c(C)c(C(=O)O)sc3n2)cc1; 1400

Value lookup for IC50; key = `CO[C@@H](CNc1nc(C[C@H](C)c2ccccc2)nc2sc(C(=O)O)c(C)c12)c1ccccc1` 2000

Report IC50 for `CO[C@@H](CNc1nc(C[C@@H](C)c2ccccc2)nc2sc(C(=O)O)c(C)c12)c1ccccc1` please. 870

Please give the measured IC50 for this molecule: `CNc1nc(CCc2ccccc2)nc2cc(C(=O)O)sc12` 3900

Quick one: IC50 for `COc1ccc(CCNc2nc(CCc3ccccc3)nc3sc(C(=O)O)c(C)c23)cc1` ? 540

Please report the recorded IC50 for `Cc1c(C(=O)O)sc2nc(CCc3ccccc3)nc(NCCc3ccncc3)c12` . 390

What value of measured IC50 is listed for `CO[C@H](CNc1nc(C[C@H](C)c2ccccc2)nc2sc(C(=O)O)c(C)c12)c1ccccc1` ? 1100

For the molecule shown here, `CNc1nc(CCc2cccc(C(F)(F)F)c2)nc2sc(C(=O)O)c(C)c12` , give the reported IC50. 4600

====

Examples of molecules with documented IC50 follow.
# system_tested: UDP-N-acetylbacillosamine N-acetyltransferase (Campylobacter jejuni subsp. jejuni serotype O:2 (strain ATCC 700819 /NCTC 11168), UniProt Q0P9D1)
# Sequence (Q0P9D1 whole entry): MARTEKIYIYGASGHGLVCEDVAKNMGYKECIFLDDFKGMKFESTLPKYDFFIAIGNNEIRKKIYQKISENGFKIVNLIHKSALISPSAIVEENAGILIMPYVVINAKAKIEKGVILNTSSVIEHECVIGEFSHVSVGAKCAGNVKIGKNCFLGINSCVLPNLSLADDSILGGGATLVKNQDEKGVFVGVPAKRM
# experiment_notes: Inhibition of Campylobacter jejuni NCTC 11168 PglD acetyltransferase expressed in Escherichia coli BL-21(DE3) strain (Stratagene) assessed as release of CoASH preincubated for 30 mins followed by addition of 300 uM AcCoA and 500 uM UDP-4-aminosugar as substrate by Ellman's method
Numeric answer plus unit only.

Examples from the recorded data:
CC(=O)Nc1ccc(CCc2nc(NCCc3ccccn3)c3c(C)c(C(=O)O)sc3n2)cc1; 280 nM
Cc1c(C(=O)O)sc2nc(CCc3ccccc3)nc(NCCc3cccc(F)c3)c12; 390 nM
Cc1c(C(=O)O)sc2nc(CCc3ccccc3)nc(NCc3ccccc3)c12; 4500 nM

Fill in: IC50 of `CNc1nc(CCc2cccc(NC(C)=O)c2)nc2sc(C(=O)O)c(C)c12` is ___ 3500 nM

Record request: IC50 value, item `CNc1nc(CCc2ccc(NC(C)=O)cc2)nc2sc(C(=O)O)c(C)c12` 2400 nM

Requested read-out: IC50. Entry: `Cc1c(C(=O)O)sc2nc(CCc3ccccc3)nc(NC3Cc4ccccc4C3)c12` 1000 nM

Reported IC50 for `CNc1nc(CCCCc2ccccc2)nc2sc(C(=O)O)c(C)c12` : what is it? 4100 nM

Return reported IC50; argument: `Cc1c(C(=O)O)sc2nc(CCc3ccccc3)nc(NCCc3cccnc3)c12` 340 nM

GET /values?readout=IC50&item= `CNc1nc(CCc2ccc3c(c2)OCO3)nc2sc(C(=O)O)c(C)c12` 1800 nM
